Test: chemical genetic growth profiling, strain panel (AID 1159580);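 also: tested at 20 µM; growth read once vehicle control cultures reached saturation at 30 °C; 1 = growth at the plate median or of vehicle wells; lower values mean less growth of the strain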
Details: S. cerevisiae deletion strains, growth OD, locus YER015W, strain faa2, stronger effect = lower value
In all, about 5,500 compounds went through this assay and about 2,000 (36%) were called active. Not shown: some 18% with an inconclusive outcome. The list shows a part of the results.
We begin with a simple list: items and their reported normalized growth.
Respond with the number and no other words.

>>> print(df.to_string())
                                   compound  value_observed
0  CN1CCCN=C1COC(=O)C(O)(c1ccccc1)C1CCCCC1 (stereo unspecified)           0.978
1  CCCCNc1cc(C(=O)O)cc(S(N)(=O)=O)c1Oc1ccccc1            1.01

Enquiry: Suppose we examine the compound CC1=C(/C=C/C(C)=C/C=C/C(C)=C/C=C/C=C(C)/C=C/C=C(C)/C=C/C(=O)[C@]2(C)C[C@@H](O)CC2(C)C)C(C)(C)C[C@H](O)C1 ; what normalized growth value has been reported?
Return: 1.04

Enquiry: Suppose we examine the compound COC1=CC(=O)C[C@@H](C)[C@]12Oc1c(Cl)c(OC)cc(OC)c1C2=O ; what normalized growth value has been reported?
Return: 0.971

Enquiry: Suppose we examine the compound COc1cc2c(cc1OC)[C@@H]1C(=O)c3ccc(OC)c(CC=C(C)C)c3O[C@@H]1CO2 ; what normalized growth value has been reported?
Return: 1.04

Enquiry: Suppose we examine the compound CC1=C(/C=C/C(C)=C/C=C/C(C)=C/C=C/C=C(C)/C=C/C=C(C)/C=C/C2=C(C)C(=O)C(O)CC2(C)C)C(C)(C)CC(O)C1=O (stereo unspecified) ; what normalized growth value has been reported?
Return: 1.04

###

We begin with a simple list: items and their reported normalized growth.
Experiment: chemical genetic growth profiling, strain panel (AID 1159580);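 also: tested at 20 µM; growth read once vehicle control cultures reached saturation at 30 °C; 1 = growth at the plate median or of vehicle wells; lower values mean less growth of the strain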
Details: S. cerevisiae deletion strains, growth OD, locus YML094W, strain GIM5, stronger effect = lower value
In all, about 5,500 compounds went through this assay and about 2,000 (36%) were called active. Roughly 18% stayed inconclusive and do not appear here. The list shows a part of the results.
Respond with the number and no other words.

Below are worked cases with known answers.
                                   molecule  value_observed
0   CC(C)(C)c1ccc(NC(=O)Cc2cc(F)cc(F)c2)cc1           0.994
1  COc1ccc(CN2C(=O)CSC2c2ccccn2)cc1 (centres undefined)            1.02
2                       N#CCOc1ccc(Cl)cc1Cl           0.983
3                 CC(C)(C)C(=O)Nc1ccc(F)cc1               1
4  O=C1c2cccc3cc([N+](=O)[O-])cc(c23)C(=O)N1CCO           0.976
5  COc1cccc(OC)c1C(C)(O)C(OC)OC (centres undefined)           0.997

Enquiry: Suppose we examine the molecule CC12CCC3C(CCC4=CC(=O)CCC43CO)C1CCC2OC(=O)c1ccccc1 (centres undefined) ; what normalized growth value has been reported?
Return: 1

Enquiry: Suppose we examine the molecule COc1ccc(OC)c(S(=O)(=O)Oc2ccc(C#N)cc2)c1 ; what normalized growth value has been reported?
Return: 0.981

Enquiry: Suppose we examine the molecule COC(=O)c1sccc1OC(=O)c1c(F)cccc1F ; what normalized growth value has been reported?
Return: 0.981
